Target: G protein-activated inward rectifier potassium channel 2 (Homo sapiens) + G protein-activated inward rectifier potassium channel 1 (Homo sapiens) (UniProt P48051+P48549)
Sequence (P48051 whole entry, looked up): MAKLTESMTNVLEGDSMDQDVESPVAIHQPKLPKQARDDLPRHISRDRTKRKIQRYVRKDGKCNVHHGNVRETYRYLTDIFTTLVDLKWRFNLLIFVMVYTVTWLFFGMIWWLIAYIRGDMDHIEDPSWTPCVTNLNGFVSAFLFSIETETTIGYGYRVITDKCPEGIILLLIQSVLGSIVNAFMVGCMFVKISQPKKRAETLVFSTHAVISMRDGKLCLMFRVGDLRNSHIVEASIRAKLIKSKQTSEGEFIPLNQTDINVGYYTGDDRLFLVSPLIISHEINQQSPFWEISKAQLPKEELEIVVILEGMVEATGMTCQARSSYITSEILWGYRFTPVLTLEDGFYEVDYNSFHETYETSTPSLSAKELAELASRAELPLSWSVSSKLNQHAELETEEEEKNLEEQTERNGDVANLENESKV
Sequence (P48549 whole entry, looked up): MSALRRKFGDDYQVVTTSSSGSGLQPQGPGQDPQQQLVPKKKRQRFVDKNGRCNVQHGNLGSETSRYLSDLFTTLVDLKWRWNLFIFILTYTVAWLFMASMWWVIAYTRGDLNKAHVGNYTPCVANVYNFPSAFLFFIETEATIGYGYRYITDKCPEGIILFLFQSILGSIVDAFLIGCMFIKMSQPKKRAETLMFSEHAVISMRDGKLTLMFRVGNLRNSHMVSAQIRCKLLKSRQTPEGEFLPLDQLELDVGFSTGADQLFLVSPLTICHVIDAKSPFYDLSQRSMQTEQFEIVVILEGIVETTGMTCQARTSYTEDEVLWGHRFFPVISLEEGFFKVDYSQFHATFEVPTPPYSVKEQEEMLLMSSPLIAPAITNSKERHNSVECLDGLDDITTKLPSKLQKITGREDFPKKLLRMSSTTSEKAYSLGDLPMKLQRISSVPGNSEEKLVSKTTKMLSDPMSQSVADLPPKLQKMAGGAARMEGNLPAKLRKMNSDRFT
Experiment: GIRK1/2 thallium flux modulators, retest, confirmation, cell-based, HEK293 rmGlu8/hGIRK1/2, FluoZin-2 (AID 623911)
Conditions: HEK293 rmGlu8/hGIRK1/2, thallium flux FluoZin-2; actives lie on both sides; glutamate co-added at its EC20 level
About 770 (37%) of roughly 2,100 compounds were called active.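 The calls were made as follows: active = by-eye trace score of 1 for enhancers or -1 for inhibitors, so actives lie on both sides (some results past the limit were not filed as active); inactive = score 0, or 3 fluorescent, or 4 baseline rise.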 The list shows a part of the results.
Outcome codes: 1 (yes) (active), 0 (no) (inactive)

[
  {
    "compound": "COc1ccc(-n2cc(-c3ccccc3)[nH]c2=S)cc1",
    "label": "0 (no)"
  },
  {
    "compound": "Cc1ccc(C(=O)NC(=S)Nc2ccccc2C(F)(F)F)cc1C",
    "label": "0 (no)"
  },
  {
    "compound": "CCn1c(CCNC(=O)c2cccs2)nnc1SCC(=O)Nc1ccc(Cl)cc1",
    "label": "0 (no)"
  },
  {
    "compound": "Cc1ccc(NC(=O)Cc2c(Cl)cccc2Cl)cc1S(=O)(=O)N(C)C",
    "label": "1 (yes)"
  },
  {
    "compound": "CCc1cc2c(=O)n(CC)c(SC(C)C(=O)Nc3c(C)n(C)n(-c4ccccc4)c3=O)nc2s1 (centres undefined)",
    "label": "0 (no)"
  },
  {
    "compound": "COC(=O)c1ccccc1NC(=S)NC(=O)COc1ccccc1",
    "label": "1 (yes)"
  },
  {
    "compound": "NC(=O)SCC(=O)Nc1cccc(Cl)c1",
    "label": "1 (yes)"
  },
  {
    "compound": "Cc1ccc2nc(NC(=S)NC(=O)c3cccs3)sc2c1",
    "label": "0 (no)"
  },
  {
    "compound": "N#Cc1c(N)nc(SCc2ccccc2)c(C#N)c1-c1ccco1",
    "label": "0 (no)"
  },
  {
    "compound": "Cc1ccc(C(=O)N/N=C(/CC(=O)c2cccs2)C(F)(F)F)cc1",
    "label": "1 (yes)"
  },
  {
    "compound": "CSc1nc2ccccc2cc1/C=C(\\C#N)c1cccc(C)c1",
    "label": "0 (no)"
  },
  {
    "compound": "Cc1nc2nc(Cc3ccccc3)[nH]n2c(=O)c1Cc1ccccc1",
    "label": "0 (no)"
  },
  {
    "compound": "COC(=O)c1sccc1NC(=O)CSc1ccccc1NS(=O)(=O)c1ccccc1Cl",
    "label": "0 (no)"
  },
  {
    "compound": "Cc1ccc(C(=O)NC(=S)Nc2ccccc2C(F)(F)F)cc1",
    "label": "1 (yes)"
  },
  {
    "compound": "NC(=O)SCC(=O)Nc1ccc(Cl)cc1",
    "label": "1 (yes)"
  },
  {
    "compound": "CN1CCN(S(=O)(=O)c2cccc(S(=O)(=O)c3cccc(S(=O)(=O)N4CCN(C)CC4)c3)c2)CC1",
    "label": "0 (no)"
  },
  {
    "compound": "S=c1nc[nH]c2c1sc1nc(-c3ccccc3)c3c(c12)CCCC3",
    "label": "1 (yes)"
  },
  {
    "compound": "CC1CCC/C(=N\\NC(=O)COc2ccc(Cl)cc2Cl)C1 (centres undefined)",
    "label": "1 (yes)"
  },
  {
    "compound": "COc1cc(OC)c(-c2c3cc(O)c(=O)cc-3oc3cc(O)c(O)cc23)cc1OC",
    "label": "0 (no)"
  },
  {
    "compound": "O=C(CSCCO)Nc1ccccc1",
    "label": "0 (no)"
  },
  {
    "compound": "Cc1ccc(NC(=O)CSC(N)=O)cc1Cl",
    "label": "1 (yes)"
  },
  {
    "compound": "O=C(COc1ccccc1)NC(=S)Nc1ccc2c(c1)Cc1ccccc1-2",
    "label": "0 (no)"
  },
  {
    "compound": "Cc1ccc(NC(=O)Cn2cccc2)cc1Cl",
    "label": "0 (no)"
  },
  {
    "compound": "CCN(CC)CC(O)COCCC12CC3CC(CC(C3)C1)C2 (centres undefined)",
    "label": "1 (yes)"
  }
]
